Assay Notes: Antiproliferative activity against human LO2 cells after 72 hrs by MTT assay
Type: cell-based
Condition Label: L02, 72 h
Outcome Measure: IC50 (µM)
Report the value in µM with no unit label.

chem_smiles=Cc1[nH]c(/C=C2\C(=O)Nc3ccc(F)cc32)c(C)c1NC(=O)CCN1CCN(C)CC1 reported=41.4

# ---- query compound ----
State the recorded IC50 for this entry: CCN(CC)CCNC(=O)c1c(C)[nH]c(/C=C2\C(=O)Nc3ccc(F)cc32)c1C 19.9

----------
Assay Notes: Antiproliferative activity against human NCI-H3122 cells after 72 hrs by MTT assay
Type: functional, cell-based
Condition Label: NCI-H3122, 72 h
Outcome Measure: IC50 (µM)
Report the value in µM with no unit label.

chem_smiles=Cc1[nH]c(/C=C2\C(=O)Nc3ccc(F)cc32)c(C)c1NC(=O)CCN1CCN(C)CC1 measurement_unit=µM reported=17.1

# ---- query compound ----
State the recorded IC50 for this entry: CCN(CC)CCNC(=O)c1c(C)[nH]c(/C=C2\C(=O)Nc3ccc(F)cc32)c1C 0.83

----------
System Name: Phosphorylase b kinase gamma catalytic chain, liver/testis isoform (Homo sapiens)
Sequence (P15735 whole entry, canonical isoform): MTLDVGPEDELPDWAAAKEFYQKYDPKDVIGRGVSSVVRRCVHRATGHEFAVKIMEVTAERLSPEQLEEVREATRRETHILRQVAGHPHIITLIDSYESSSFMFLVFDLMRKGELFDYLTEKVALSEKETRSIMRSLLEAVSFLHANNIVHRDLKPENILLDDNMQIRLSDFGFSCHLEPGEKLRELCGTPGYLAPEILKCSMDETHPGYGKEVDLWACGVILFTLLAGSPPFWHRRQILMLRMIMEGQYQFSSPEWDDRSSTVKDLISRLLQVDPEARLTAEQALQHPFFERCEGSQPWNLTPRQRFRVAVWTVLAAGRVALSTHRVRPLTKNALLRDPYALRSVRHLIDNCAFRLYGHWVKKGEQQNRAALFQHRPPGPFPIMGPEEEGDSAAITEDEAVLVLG
Assay Notes: Binding affinity to PHKgamma2 (unknown origin)
Outcome Measure: pKi
Please note pKi is a logarithmic value: minus log10 of concentration in mol/L. Answer with that number alone.

Write down the reported pKi of Cc1[nH]c(/C=C2\C(=O)Nc3ccc(F)cc32)c(C)c1NC(=O)CCN1CCN(C)CC1 , test system: Phosphorylase b kinase gamma catalytic chain, liver/testis isoform (Homo sapiens). 6.08

----------
System: Mus musculus
Assay Notes: Toxicity in BALB/c nude mouse xenografted with human HT-29 cells assessed as severe weight loss at 80 mg/kg/day administered qd
Format: organism-based
Condition Label: in vivo
Outcome Measure: Activity

chem_smiles=CCN(CC)CCC(=O)Nc1c(C)[nH]c(/C=C2\C(=O)Nc3ccc(Br)cc32)c1C outcome_measure=Activity reported=Toxic
chem_smiles=Cc1[nH]c(/C=C2\C(=O)Nc3ccc(F)cc32)c(C)c1NC(=O)CCN1CCN(C)CC1 outcome_measure=Activity reported=Non-toxic
chem_smiles=Cc1[nH]c(/C=C2\C(=O)Nc3ccc(F)cc32)c(C)c1NC(=O)CCN1CCCCC1 outcome_measure=Activity reported=Non-toxic
chem_smiles=CCN1CCN(CCC(=O)Nc2c(C)[nH]c(/C=C3\C(=O)Nc4ccc(F)cc43)c2C)CC1 outcome_measure=Activity reported=Non-toxic

----------
Tested on: HT-29
Assay Notes: Antitumor activity against human HT-29 cells xenografted in BALB/c nude mouse assessed as tumor growth inhibition at 80 mg/kg/day administered qd measured up to day 21 relative to control
Format: functional
Calls of active or inactive are those of the source. The calls are words filed in the database; no cut-off is given here.
Allowed answers: active, inactive

Reference set, count: 9
chem_smiles=CCN1CCN(C(=O)c2c(C)[nH]c(/C=C3\C(=O)Nc4ccc(F)cc43)c2C)CC1 assigned_category=active
chem_smiles=Cc1[nH]c(/C=C2\C(=O)Nc3ccc(F)cc32)c(C)c1C(=O)N1CCN(C)CC1 assigned_category=active
chem_smiles=Cc1[nH]c(/C=C2\C(=O)Nc3ccc(F)cc32)c(C)c1NC(=O)CCN1CCCCC1 assigned_category=active
chem_smiles=CCN(CC)C1CCN(C(=O)c2c(C)[nH]c(/C=C3\C(=O)Nc4ccc(F)cc43)c2C)CC1 assigned_category=active
chem_smiles=Cc1[nH]c(/C=C2\C(=O)Nc3ccc(F)cc32)c(C)c1NC(=O)CCCN(C)C assigned_category=active
chem_smiles=CCN(CC)CCC(=O)Nc1c(C)[nH]c(/C=C2\C(=O)Nc3ccc(Br)cc32)c1C assigned_category=active
chem_smiles=CCN(CC)CCNC(=O)c1c(C)[nH]c(/C=C2\C(=O)Nc3ccc(F)cc32)c1C assigned_category=active
chem_smiles=Cc1[nH]c(/C=C2\C(=O)Nc3ccc(F)cc32)c(C)c1C(=O)N1CCC(N(C)C)CC1 assigned_category=active
chem_smiles=Cc1[nH]c(/C=C2\C(=O)Nc3ccc(F)cc32)c(C)c1C(=O)N1CCN(CCO)CC1 assigned_category=inactive

Assay result, entry CCN(CC)CCC(=O)Nc1c(C)[nH]c(/C=C2\C(=O)Nc3ccc(F)cc32)c1C — outcome? active

----------
System Name: Voltage-gated inwardly rectifying potassium channel KCNH2 (Homo sapiens)
Sequence (Q12809 whole entry): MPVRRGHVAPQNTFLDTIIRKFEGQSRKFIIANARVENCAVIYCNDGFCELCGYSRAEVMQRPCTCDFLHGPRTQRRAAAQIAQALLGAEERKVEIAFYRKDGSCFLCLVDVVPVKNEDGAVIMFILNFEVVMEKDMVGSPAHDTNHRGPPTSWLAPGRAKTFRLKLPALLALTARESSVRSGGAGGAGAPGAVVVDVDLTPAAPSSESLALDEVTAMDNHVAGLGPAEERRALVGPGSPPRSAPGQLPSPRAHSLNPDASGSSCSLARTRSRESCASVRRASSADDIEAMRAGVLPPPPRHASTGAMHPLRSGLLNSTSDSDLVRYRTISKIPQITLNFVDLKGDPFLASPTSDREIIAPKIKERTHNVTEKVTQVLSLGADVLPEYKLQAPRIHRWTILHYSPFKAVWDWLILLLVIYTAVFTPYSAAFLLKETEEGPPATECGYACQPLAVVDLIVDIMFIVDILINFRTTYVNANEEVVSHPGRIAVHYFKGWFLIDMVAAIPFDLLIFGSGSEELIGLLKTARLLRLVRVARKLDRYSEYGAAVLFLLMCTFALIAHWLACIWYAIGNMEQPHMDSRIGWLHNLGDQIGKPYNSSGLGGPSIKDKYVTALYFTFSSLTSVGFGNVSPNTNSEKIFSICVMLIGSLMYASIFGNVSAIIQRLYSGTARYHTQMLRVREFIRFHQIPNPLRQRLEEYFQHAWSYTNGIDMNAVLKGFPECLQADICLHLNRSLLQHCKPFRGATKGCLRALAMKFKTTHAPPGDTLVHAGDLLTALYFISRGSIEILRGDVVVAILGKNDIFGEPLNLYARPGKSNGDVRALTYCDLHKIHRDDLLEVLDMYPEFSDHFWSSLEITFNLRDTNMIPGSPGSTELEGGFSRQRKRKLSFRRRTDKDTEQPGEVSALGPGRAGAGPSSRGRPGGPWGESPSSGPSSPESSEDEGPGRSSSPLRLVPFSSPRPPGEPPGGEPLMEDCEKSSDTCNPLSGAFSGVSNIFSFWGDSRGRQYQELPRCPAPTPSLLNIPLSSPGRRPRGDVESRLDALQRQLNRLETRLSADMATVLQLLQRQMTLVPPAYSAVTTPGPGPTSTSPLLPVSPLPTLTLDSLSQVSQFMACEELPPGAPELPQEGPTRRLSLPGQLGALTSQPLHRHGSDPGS
Assay Notes: Inhibition of human ERG
Outcome Measure: pIC50
Please note pIC50 is a logarithmic value: minus log10 of concentration in mol/L. Answer with that number alone.

State the recorded pIC50 for this entry: Cc1[nH]c(/C=C2\C(=O)Nc3ccc(F)cc32)c(C)c1NC(=O)CCN1CCN(C)CC1 4.73

----------
System Name: Tyrosine-protein kinase Fyn (Homo sapiens, UniProt P06241)
Outcome Measure: pKi
Please note pKi is a logarithmic value: minus log10 of concentration in mol/L. Answer with that number alone.

State the recorded pKi for this entry: Cc1[nH]c(/C=C2\C(=O)Nc3ccc(F)cc32)c(C)c1NC(=O)CCN1CCN(C)CC1 5.74

----------
System Name: Vascular endothelial growth factor receptor 2 (Homo sapiens, UniProt P35968)
Sequence (P35968 whole entry): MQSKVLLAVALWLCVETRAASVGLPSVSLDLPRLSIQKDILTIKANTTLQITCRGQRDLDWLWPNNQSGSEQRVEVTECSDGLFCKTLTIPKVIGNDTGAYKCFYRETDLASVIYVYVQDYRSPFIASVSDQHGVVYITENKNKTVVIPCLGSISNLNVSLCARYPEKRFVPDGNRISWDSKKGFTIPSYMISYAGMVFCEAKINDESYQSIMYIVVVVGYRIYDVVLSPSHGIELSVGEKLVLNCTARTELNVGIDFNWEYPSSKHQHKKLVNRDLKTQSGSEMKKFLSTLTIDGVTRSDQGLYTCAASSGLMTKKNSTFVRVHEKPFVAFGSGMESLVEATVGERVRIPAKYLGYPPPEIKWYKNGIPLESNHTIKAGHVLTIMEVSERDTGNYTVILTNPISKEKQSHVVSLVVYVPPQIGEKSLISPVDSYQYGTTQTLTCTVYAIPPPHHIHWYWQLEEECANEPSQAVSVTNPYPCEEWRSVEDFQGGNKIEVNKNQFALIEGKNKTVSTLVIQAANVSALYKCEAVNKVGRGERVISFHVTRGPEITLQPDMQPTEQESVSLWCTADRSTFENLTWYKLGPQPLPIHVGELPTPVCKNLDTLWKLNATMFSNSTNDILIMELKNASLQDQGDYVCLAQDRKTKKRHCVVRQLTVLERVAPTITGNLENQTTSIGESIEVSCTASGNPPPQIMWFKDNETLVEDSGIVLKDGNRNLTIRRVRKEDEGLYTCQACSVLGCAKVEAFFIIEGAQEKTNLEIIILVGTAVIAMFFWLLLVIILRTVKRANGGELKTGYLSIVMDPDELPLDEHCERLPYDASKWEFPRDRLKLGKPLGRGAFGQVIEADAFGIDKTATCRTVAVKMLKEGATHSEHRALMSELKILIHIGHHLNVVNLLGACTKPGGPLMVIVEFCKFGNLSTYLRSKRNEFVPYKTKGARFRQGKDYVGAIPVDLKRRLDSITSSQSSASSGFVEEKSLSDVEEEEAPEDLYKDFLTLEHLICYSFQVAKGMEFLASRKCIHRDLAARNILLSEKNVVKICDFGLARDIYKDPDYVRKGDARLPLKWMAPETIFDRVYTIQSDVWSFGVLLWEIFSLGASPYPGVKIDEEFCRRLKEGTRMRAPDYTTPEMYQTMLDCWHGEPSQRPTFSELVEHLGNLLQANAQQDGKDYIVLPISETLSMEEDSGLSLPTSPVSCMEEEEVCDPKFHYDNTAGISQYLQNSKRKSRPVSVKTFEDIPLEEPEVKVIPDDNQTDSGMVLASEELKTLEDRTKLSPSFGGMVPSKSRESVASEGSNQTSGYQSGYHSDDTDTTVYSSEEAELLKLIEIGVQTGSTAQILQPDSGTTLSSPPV
Outcome Measure: pKi
Please note pKi is a logarithmic value: minus log10 of concentration in mol/L. Answer with that number alone.

Write down the reported pKi of Cc1[nH]c(/C=C2\C(=O)Nc3ccc(F)cc32)c(C)c1NC(=O)CCN1CCN(C)CC1 , test system: Vascular endothelial growth factor receptor 2 (Homo sapiens, UniProt P35968). 8.42

----------
System Name: UniProtKB P36888
Assay Notes: Binding affinity to FLT3 (unknown origin)
pKi: −log10 of the molar value.
Outcome Measure: pKi

State the recorded pKi for this entry: Cc1[nH]c(/C=C2\C(=O)Nc3ccc(F)cc32)c(C)c1NC(=O)CCN1CCN(C)CC1 > 9.52

----------
System Name: Macrophage colony-stimulating factor 1 receptor (Homo sapiens, UniProt P07333)
Assay Notes: Binding affinity to FMS (unknown origin)
Outcome Measure: pKi
Please note pKi is a logarithmic value: minus log10 of concentration in mol/L. Answer with that number alone.

State the recorded pKi for this entry: Cc1[nH]c(/C=C2\C(=O)Nc3ccc(F)cc32)c(C)c1NC(=O)CCN1CCN(C)CC1 6.64

----------
System Name: Tyrosine-protein kinase ABL1 (Homo sapiens)
Assay Notes: Binding affinity to ABL (unknown origin)
Outcome Measure: Ki (µM)
Report the value in µM with no unit label.

State the recorded Ki for this entry: Cc1[nH]c(/C=C2\C(=O)Nc3ccc(F)cc32)c(C)c1NC(=O)CCN1CCN(C)CC1 0.12

----------
System Name: Fibroblast growth factor receptor 1 (Homo sapiens)
Sequence (P11362 whole entry): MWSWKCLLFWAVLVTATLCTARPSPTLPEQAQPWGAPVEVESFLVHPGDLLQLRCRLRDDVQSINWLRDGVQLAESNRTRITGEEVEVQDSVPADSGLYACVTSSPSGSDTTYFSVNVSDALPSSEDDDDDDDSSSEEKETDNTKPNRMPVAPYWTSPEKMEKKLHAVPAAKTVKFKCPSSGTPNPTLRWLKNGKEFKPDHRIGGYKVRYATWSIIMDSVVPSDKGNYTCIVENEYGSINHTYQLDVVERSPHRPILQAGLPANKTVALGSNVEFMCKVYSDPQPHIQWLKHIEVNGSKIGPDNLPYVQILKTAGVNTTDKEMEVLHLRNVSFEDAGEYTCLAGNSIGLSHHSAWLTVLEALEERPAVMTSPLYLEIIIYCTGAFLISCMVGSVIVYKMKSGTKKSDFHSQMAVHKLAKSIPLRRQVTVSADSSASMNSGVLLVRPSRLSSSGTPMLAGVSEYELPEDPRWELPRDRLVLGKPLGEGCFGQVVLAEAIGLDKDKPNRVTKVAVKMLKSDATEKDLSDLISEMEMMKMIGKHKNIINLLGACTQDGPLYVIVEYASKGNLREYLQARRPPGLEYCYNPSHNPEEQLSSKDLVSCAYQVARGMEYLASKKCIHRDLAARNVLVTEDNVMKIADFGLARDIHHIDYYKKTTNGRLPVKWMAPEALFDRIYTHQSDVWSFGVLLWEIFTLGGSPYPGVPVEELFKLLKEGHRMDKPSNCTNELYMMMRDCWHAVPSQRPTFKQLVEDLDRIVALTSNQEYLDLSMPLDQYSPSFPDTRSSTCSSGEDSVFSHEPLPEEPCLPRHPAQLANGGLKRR
Outcome Measure: Ki (nM)
Report the value in nM with no unit label.

State the recorded Ki for this entry: Cc1[nH]c(/C=C2\C(=O)Nc3ccc(F)cc32)c(C)c1NC(=O)CCN1CCN(C)CC1 350

----------
System Name: ALK tyrosine kinase receptor (Homo sapiens, UniProt Q9UM73)
Outcome Measure: Ki

Write down the reported Ki of Cc1[nH]c(/C=C2\C(=O)Nc3ccc(F)cc32)c(C)c1NC(=O)CCN1CCN(C)CC1 , test system: ALK tyrosine kinase receptor (Homo sapiens, UniProt Q9UM73). 0.095 µM

----------
System Name: Tyrosine-protein kinase receptor UFO (Homo sapiens)
Sequence (P30530 whole entry): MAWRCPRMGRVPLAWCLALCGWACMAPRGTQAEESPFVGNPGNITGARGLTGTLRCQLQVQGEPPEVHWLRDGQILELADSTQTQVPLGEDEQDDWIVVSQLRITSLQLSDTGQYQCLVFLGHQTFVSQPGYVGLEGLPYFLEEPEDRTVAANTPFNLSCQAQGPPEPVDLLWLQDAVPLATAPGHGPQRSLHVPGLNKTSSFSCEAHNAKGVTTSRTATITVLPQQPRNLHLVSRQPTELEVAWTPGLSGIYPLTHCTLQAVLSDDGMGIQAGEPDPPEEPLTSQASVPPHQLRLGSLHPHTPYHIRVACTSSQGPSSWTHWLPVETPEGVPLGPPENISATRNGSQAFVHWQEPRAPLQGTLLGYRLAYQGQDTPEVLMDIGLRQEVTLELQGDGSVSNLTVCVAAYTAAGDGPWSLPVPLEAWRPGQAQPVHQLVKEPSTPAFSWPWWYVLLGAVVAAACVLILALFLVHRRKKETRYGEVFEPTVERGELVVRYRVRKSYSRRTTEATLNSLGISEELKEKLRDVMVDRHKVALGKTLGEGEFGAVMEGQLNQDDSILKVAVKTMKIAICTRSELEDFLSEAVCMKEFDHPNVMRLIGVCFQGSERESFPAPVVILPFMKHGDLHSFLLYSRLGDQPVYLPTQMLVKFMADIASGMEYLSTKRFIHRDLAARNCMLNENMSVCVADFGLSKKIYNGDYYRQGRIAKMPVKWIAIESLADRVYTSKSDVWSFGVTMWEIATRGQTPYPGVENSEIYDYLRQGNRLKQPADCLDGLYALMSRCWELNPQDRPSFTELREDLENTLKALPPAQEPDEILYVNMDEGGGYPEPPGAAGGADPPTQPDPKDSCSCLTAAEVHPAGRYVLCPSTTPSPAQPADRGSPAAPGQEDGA
Outcome Measure: Ki (nM)
Report the value in nM with no unit label.

Write down the reported Ki of Cc1[nH]c(/C=C2\C(=O)Nc3ccc(F)cc32)c(C)c1NC(=O)CCN1CCN(C)CC1 , test system: Tyrosine-protein kinase receptor UFO (Homo sapiens). 63

----------
Tested on: HT-29
Assay Notes: Antitumor activity against human HT-29 cells xenografted in BALB/c nude mouse assessed as tumor growth inhibition at 80 mg/kg/day administered qd measured up to day 21 relative to control
Type: functional
The source made the active and inactive calls. The rule behind the calls is not given here.
Allowed answers: y = active, n = inactive

Reference set, count: 3
chem_smiles=Cc1[nH]c(/C=C2\C(=O)Nc3ccc(F)cc32)c(C)c1NC(=O)/C=C/CN(C)C assigned_category=n
chem_smiles=CCN1CCN(CCC(=O)Nc2c(C)[nH]c(/C=C3\C(=O)Nc4ccc(F)cc43)c2C)CC1 assigned_category=y
chem_smiles=Cc1[nH]c(/C=C2\C(=O)Nc3ccc(F)cc32)c(C)c1NC(=O)CCN1CCOCC1 assigned_category=n

Shifting focus to the molecule that follows.
Assay result, entry Cc1[nH]c(/C=C2\C(=O)Nc3ccc(F)cc32)c(C)c1NC(=O)CCN(C)C — outcome? y

----------
System Name: Tyrosine-protein kinase Lck (Homo sapiens, UniProt P06239)
Outcome Measure: pKi
Please note pKi is a logarithmic value: minus log10 of concentration in mol/L. Answer with that number alone.

Write down the reported pKi of Cc1[nH]c(/C=C2\C(=O)Nc3ccc(F)cc32)c(C)c1NC(=O)CCN1CCN(C)CC1 , test system: Tyrosine-protein kinase Lck (Homo sapiens, UniProt P06239). 5.70

----------
# reported IC50; entries follow
Assay Notes: Antiproliferative activity against human HK2 cells after 72 hrs by MTT assay
Assay type: cell-based
Condition Label: HK-2, 72 h
Report the value in µM with no unit label.

compound="CCN(CC)CCNC(=O)c1c(C)[nH]c(/C=C2\\C(=O)Nc3ccc(F)cc32)c1C [SUNITINIB]" reported=5.85

# ---- query compound ----
State the recorded IC50 for this entry: Cc1[nH]c(/C=C2\C(=O)Nc3ccc(F)cc32)c(C)c1NC(=O)CCN1CCN(C)CC1 6.85
